Tested on: 621-102 (TSC2-deficient);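 note: renal angiomyolipoma cell lines screened in 384-well plates, viability normalized per plate to DMSO-treated cells, each plate carrying 50 nM rapamycin and 1 µM staurosporine controls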
Assay: relative viability vs DMSO (fraction); higher = less cytotoxic
Details: 5000 nM; serum: 0.1% FBS; 72 h
Measured endpoint: relative viability

Here is how some molecules turned out for relative viability.
{"Molecule": "Cn1cncc1[C@@](N)(c1ccc(Cl)cc1)c1ccc2c(c1)c(-c1cccc(Cl)c1)cc(=O)n2C", "Observed measurement": 0.0644}
{"Molecule": "CC(C)C[C@H](NC(=O)CNC(=O)c1cc(Cl)ccc1Cl)B(O)O", "Observed measurement": 0.00111}
{"Molecule": "CC1(C)CC(=O)c2c(C(F)(F)F)nn(-c3ccc(C(N)=O)c(N[C@H]4CC[C@H](O)CC4)c3)c2C1", "Observed measurement": 0.0194}
{"Molecule": "O=C(Cc1ccc(-c2ccc(OCCN3CCOCC3)cc2)cn1)NCc1ccccc1", "Observed measurement": 0.0343}
{"Molecule": "C=C1C[C@@H]2[C@H](CC[C@]3(C)C(=O)CC[C@@H]23)[C@@]2(C)C=CC(=O)C=C12", "Observed measurement": 0.891}
{"Molecule": "O=C(/C=C/c1cccc(S(=O)(=O)Nc2ccccc2)c1)NO", "Observed measurement": 0.0621}

Read the next record carefully.
Inquiry: Please report the recorded relative viability for CC(C)C[C@H](NC(=O)CNC(=O)c1cc(Cl)ccc1Cl)B1OC(=O)C(CC(=O)O)(CC(=O)O)O1 .
Reply text: 0.000667

Values from the supplement of paper PMC8960247
